Entry source: patent US20230019491A1

For each entry below, report its pIC50 value.
Target: TBK1 (Homo sapiens)
Sequence (Q9UHD2 1-729): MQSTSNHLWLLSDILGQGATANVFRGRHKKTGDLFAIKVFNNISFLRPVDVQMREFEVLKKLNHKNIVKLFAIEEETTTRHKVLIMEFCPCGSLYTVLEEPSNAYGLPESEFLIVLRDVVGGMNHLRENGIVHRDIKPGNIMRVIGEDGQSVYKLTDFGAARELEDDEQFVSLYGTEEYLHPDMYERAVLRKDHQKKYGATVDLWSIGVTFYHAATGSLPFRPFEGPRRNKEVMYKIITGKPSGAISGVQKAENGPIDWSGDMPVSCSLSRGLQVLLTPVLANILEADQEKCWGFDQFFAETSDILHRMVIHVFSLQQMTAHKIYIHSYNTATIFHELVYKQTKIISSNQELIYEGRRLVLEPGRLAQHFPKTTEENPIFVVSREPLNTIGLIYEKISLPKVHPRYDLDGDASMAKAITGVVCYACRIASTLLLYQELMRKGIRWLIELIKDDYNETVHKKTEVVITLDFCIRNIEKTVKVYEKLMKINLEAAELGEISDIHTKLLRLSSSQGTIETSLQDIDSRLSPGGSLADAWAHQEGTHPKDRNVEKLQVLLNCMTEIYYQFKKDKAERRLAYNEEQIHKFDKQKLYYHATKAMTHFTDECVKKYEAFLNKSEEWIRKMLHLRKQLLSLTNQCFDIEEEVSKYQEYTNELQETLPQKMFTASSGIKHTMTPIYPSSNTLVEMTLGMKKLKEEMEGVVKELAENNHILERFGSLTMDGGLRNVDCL
Test: TBK biochemical assay
Details: 10 point 1:4 dose response, 30 uM top concentration, 90 min at 25° C., LabChip EZ Reader II; read-out: TBK1_IC50
Method: Test compounds were transferred into Labcyte polypropylene 384 well plates (P055-25) and diluted to 3 mM using DMSO. […] 100 uM of a reference compound (1 uM final high concentration). Backfilling was performed if necessary so that all wells contain 1% DMSO final: […]
pIC50: −log10 of the molar value. Counter-ions that a name gives are not always drawn.

Below, each entry is followed by its recorded pIC50 result.
COMPOUND: CN1CCC(Oc2ccc(-c3ccnc(Nc4ccc(N5CCN(C)CC5)cn4)n3)cc2C#N)CC1
MEASURED ON: TBK1 (Homo sapiens)
pIC50: < 5.30
--
COMPOUND: C[C@H](O)C(=O)N1CCC(Oc2ccc(-c3ccnc(Nc4ccc(C5CCN(C6COC6)CC5)cc4)n3)cc2C#N)C(F)(F)C1 (some centres unmarked)
MEASURED ON: TBK1 (Homo sapiens)
pIC50: > 7.00
--
COMPOUND: COc1cc(Nc2nccc(-c3ccc(OC4CCN(C(=O)[C@@H](C)O)CC4)c(C#N)c3)n2)ncc1N1CCN(C2COC2)CC1
MEASURED ON: TBK1 (Homo sapiens)
pIC50: 5.30 to 6.00
--
COMPOUND: COc1nc(Nc2nccc(-c3ccc(OC4CCOCC4)c(C#N)c3)n2)ccc1C(=O)N(C)CCO
MEASURED ON: TBK1 (Homo sapiens)
pIC50: > 7.00

Consider the following items and state reported pIC50 for each.
1. COc1nc(Nc2nccc(-c3ccc(OC4CCOC4)c(C#N)n3)n2)ccc1C(=O)N(C)C (centres unmarked)
2. C[C@H](O)C(=O)N1CCC(Oc2ccc(-c3ccnc(Nc4ccccn4)n3)cc2C#N)C(F)(F)C1 (some centres unmarked)
3. COc1nc(Nc2nccc(-c3ccc(OC4CCN(C(=O)[C@@H]5CCCO5)CC4(F)F)c(C#N)c3)n2)ccc1N1CCN(C2COC2)CC1 (some centres unmarked)
4. N#Cc1cc(-c2ccnc(Nc3ccc(C4CCN(C5COC5)CC4)cc3)n2)ccc1OC1CCNCC1(F)F (centres unmarked) [Example 150, hydrochloride]

[A]
> 7.00
> 7.00
> 7.00
> 7.00

Consider the following items and state reported pIC50 for each.
1. COc1nc(Nc2nccc(-c3ccc(OC4CCN(C(=O)[C@@H](C)O)CC4(F)F)c(C#N)c3)n2)ccc1C1CCN(C2COC2)CC1 (some centres unmarked)
2. COc1cc(C(=O)N(C)C)ncc1Nc1nccc(-c2ccc(NC3CCOCC3)c(C#N)c2)n1
3. COc1cc(Nc2nccc(-c3ccc(OC4CCN(C(=O)[C@@H](C)O)CC4)c(C#N)c3)n2)cnc1N1CCN(C2COC2)CC1
4. COc1nc(Nc2nccc(-c3ccc(OC4CCN(C(=O)C(O)C5CC5)CC4(F)F)c(C#N)c3)n2)ccc1C1CCN(C2COC2)CC1 (centres unmarked)
5. COc1cc(Nc2nccc(-c3cc(C#N)c(OC4CCOCC4)cn3)n2)ncc1N1CCN(C)CC1 [Example 55, hydrochloride]
6. COc1nc(Nc2nccc(-c3ccc(O[C@@H]4CCN(C(=O)[C@@H](C)O)C[C@H]4F)c(C#N)c3)n2)ccc1C1CCN(C2COC2)CC1

[A]
1. > 7.00
2. 6.00 to 7.00
3. > 7.00
4. > 7.00
5. < 5.30
6. 6.00 to 7.00

###

Target: TBK1 (Homo sapiens)
Assay: TBK biochemical assay
Settings: 10 point 1:4 dose response, 30 uM top concentration, 90 min at 25° C., LabChip EZ Reader II; read-out: TBK1_IC50
Description: Test compounds were transferred into Labcyte polypropylene 384 well plates (P055-25) and diluted to 3 mM using DMSO. […] 100 uM of a reference compound (1 uM final high concentration). Backfilling was performed if necessary so that all wells contain 1% DMSO final: […]
MEASUREMENT TYPE: IC50

Below, each entry is followed by its recorded IC50 result.
COMPOUND: COc1nc(Nc2ncc(F)c(-c3ccc(OC4CCN(C(=O)CO)CC4(F)F)c(C#N)c3)n2)ccc1N1CCN(C2COC2)CC1 (centres unmarked) [Example 290]
RESULT: < 100 nM

COMPOUND: C[C@@H](O)C(=O)N1CCC(Oc2ccc(-c3ccnc(Nc4ccccn4)n3)cc2C#N)C(F)(F)C1 (some centres unmarked) [Example 221]
RESULT: 100 to 1000 nM

COMPOUND: COc1nc(Nc2nccc(-c3ccc(N4CC5(CCN(C(=O)[C@H](C)O)CC5)C4)c(C#N)c3)n2)ccc1N1CCN(C2COC2)CC1 [Example 314]
RESULT: < 100 nM

Consider the following items and state reported IC50 for each.
1. COc1nc(Nc2nccc(-c3ccc(OC4CCN(C(=O)C(C)O)CC4(F)F)c(C#N)c3)n2)ccc1C1CCN(C)CC1 (centres unmarked) [Example 146]
2. CN1CCN(c2ccc(Nc3nccc(-c4ccc(OC5CN(C)C5)c(C#N)c4)n3)nc2)CC1 [Example 81]

[A]
1. < 100 nM
2. 1000 to 5000 nM

###

Target: IKKε (Homo sapiens)
Sequence (Q14164 1-716): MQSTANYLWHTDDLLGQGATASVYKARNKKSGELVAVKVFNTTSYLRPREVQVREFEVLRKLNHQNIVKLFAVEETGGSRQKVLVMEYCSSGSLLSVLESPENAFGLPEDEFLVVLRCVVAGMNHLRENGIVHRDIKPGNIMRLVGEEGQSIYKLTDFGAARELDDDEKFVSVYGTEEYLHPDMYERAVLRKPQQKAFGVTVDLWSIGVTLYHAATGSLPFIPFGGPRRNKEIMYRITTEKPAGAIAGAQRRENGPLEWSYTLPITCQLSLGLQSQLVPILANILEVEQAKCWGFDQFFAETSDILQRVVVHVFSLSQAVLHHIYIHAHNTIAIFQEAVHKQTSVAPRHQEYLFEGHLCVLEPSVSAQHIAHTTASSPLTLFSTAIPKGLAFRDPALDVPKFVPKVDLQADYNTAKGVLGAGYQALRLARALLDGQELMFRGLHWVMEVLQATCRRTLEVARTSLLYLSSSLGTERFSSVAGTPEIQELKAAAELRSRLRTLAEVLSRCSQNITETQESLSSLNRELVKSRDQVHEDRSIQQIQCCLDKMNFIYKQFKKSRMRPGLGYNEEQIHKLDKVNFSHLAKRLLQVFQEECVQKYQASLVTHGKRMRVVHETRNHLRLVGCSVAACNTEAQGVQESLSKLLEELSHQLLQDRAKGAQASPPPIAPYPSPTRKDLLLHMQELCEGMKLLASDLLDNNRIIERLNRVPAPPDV
Assay: IKKε biochemical assay
Conditions: 10 point 1:4 dose response, 30 uM top concentration, 90 min at 25° C., LabChip EZ Reader II; read-out: IKKε_IC50
pIC50: −log10 of the molar value. Structures can show the parent of a compound that is named as a salt.
MEASUREMENT TYPE: pIC50

Below, each entry is followed by its recorded pIC50 result.
COMPOUND: N#Cc1cc(-c2ccnc(Nc3ccc(N4CCN(C5COC5)CC4)cc3)n2)ccc1OC1CCOCC1 [Example 135]
MEASURED ON: IKKε (Homo sapiens)
MEASUREMENT TYPE: pIC50
RESULT: > 7.00
--
COMPOUND: COc1nc(Nc2nccc(-c3ccc(OC4CCOC4)c(C#N)n3)n2)ccc1C(=O)N(C)C (centres unmarked) [Example 68]
MEASURED ON: IKKε (Homo sapiens)
MEASUREMENT TYPE: pIC50
RESULT: > 7.00
--
COMPOUND: Cc1cc(N2CCN(C3COC3)CC2)ccc1Nc1nccc(-c2ccc(OC3CCN(C(=O)[C@H](C)O)CC3(F)F)c(C#N)c2)n1 (some centres unmarked) [Example 310]
MEASURED ON: IKKε (Homo sapiens)
MEASUREMENT TYPE: pIC50
RESULT: > 7.00
--
COMPOUND: COc1nc(Nc2ncc(F)c(-c3ccc(OC4CCN(C(=O)[C@H](C)O)CC4(F)F)c(C#N)c3)n2)ccc1N1CCN(C2COC2)CC1 (some centres unmarked) [Example 292]
MEASURED ON: IKKε (Homo sapiens)
MEASUREMENT TYPE: pIC50
RESULT: > 7.00
--
COMPOUND: COc1nc(Nc2nccc(-c3ccc(O[C@@H]4CCN(C(=O)[C@@H](C)O)C[C@@H]4F)c(C#N)c3)n2)ccc1C1CCN(C2COC2)CC1 [Example 195]
MEASURED ON: IKKε (Homo sapiens)
MEASUREMENT TYPE: pIC50
RESULT: 6.00 to 7.00
--
COMPOUND: COc1ccc(Nc2nccc(-c3ccc(OC4CCN(C(=O)[C@@H](O)CO)CC4(F)F)c(C#N)c3)n2)nc1OC (some centres unmarked) [Example 244]
MEASURED ON: IKKε (Homo sapiens)
MEASUREMENT TYPE: pIC50
RESULT: > 7.00

Consider the following items and state reported pIC50 for each.
1. COc1nc(Nc2nccc(-c3ccc(OC4CCOCC4)c(C#N)c3)n2)ccc1CNC1CCN(C)CC1 [Example 41, hydrochloride]
2. C[C@@H](O)C(=O)N1CCC(Oc2ccc(-c3ccnc(Nc4cccc(C5CCN(C(CO)CO)CC5)c4)n3)cc2C#N)C(F)(F)C1 (some centres unmarked) [Example 158]
3. COc1cc(Nc2nccc(-c3ccc(OC4CCN(C(=O)[C@H](C)O)CC4)c(C#N)c3)n2)ncc1N1CCN(C2COC2)CC1 [Example 318]
4. CN(C)C(=O)c1ccc(Nc2nccc(-c3ccc(OC4CCOCC4)c(C#N)n3)n2)cn1 [Example 28]
5. COc1cc(Nc2nccc(-c3ccc(O[C@@H]4CCN(C(=O)[C@@H](C)O)CC4(F)F)c(C#N)c3)n2)ccn1 [Example 231]

[A]
1. > 7.00
2. > 7.00
3. 6.00 to 7.00
4. > 7.00
5. > 7.00

Consider the following items and state reported pIC50 for each.
1. COc1nc(Nc2ncc(F)c(-c3ccc(OC4CCN(C(=O)C(C)O)CC4(F)F)c(C#N)c3)n2)ccc1C1CCN(C2COC2)CC1 (centres unmarked) [Example 294]
2. COc1nc(Nc2nccc(-c3cc(C#N)c(OC4CCOCC4)cn3)n2)ccc1C1CCN(C)CC1 [Example 45]
3. COc1nc(Nc2nccc(-c3ccc(OC4CCOCC4)c(C#N)c3)n2)ccc1C(=O)N1CC2CCC1CO2 (centres unmarked) [Example 11]
4. COc1nc(Nc2nccc(-c3ccc(O[C@H]4CCN(C(=O)[C@H](C)O)C[C@H]4F)c(C#N)c3)n2)ccc1N1CCN(C2COC2)CC1 [Example 116]
5. COc1nc(Nc2nccc(-c3ccc(OC4CCOCC4)c(C#N)n3)n2)ccc1C(=O)N(C)C [Example 26]
6. COc1nc(Nc2nccc(-c3ccc(O[C@H]4CCN(C(=O)C(C)O)C[C@H]4F)c(C#N)c3)n2)ccc1N1CCN(C2COC2)CC1 (some centres unmarked) [Example 190]

[A]
["> 7.00", "5.30 to 6.00", "> 7.00", "> 7.00", "> 7.00", "> 7.00"]
